assay: Evaluation of conversion rate to active form in BALB/c mouse plasma (Experimental Example 3); format: in vitro ADME; details: BALB/c mouse plasma, 0.2 μmol/L, 37° C.; Examples up to 60 minutes, Comparative Examples up to 120 minutes
MEASURED PROPERTY: Conversion to Alvocidib in BALB/c mouse plasma

[[record]]
compound = "CCCN(C[C@H]1CCCCN1)C(=O)Oc1cc(O)c2c(=O)cc(-c3ccccc3Cl)oc2c1[C@H]1CCN(C)C[C@H]1O"
data_value = "proceeded rapidly"

[[record]]
compound = "CCCN(C[C@@H]1CCCCN1)C(=O)Oc1cc(O)c2c(=O)cc(-c3ccccc3Cl)oc2c1[C@H]1CCN(C)C[C@H]1O"
data_value = "proceeded rapidly"

[[record]]
compound = "CN1CC[C@H](c2c(OC(=O)N(C)C[C@H]3CCCCN3)cc(O)c3c(=O)cc(-c4ccccc4Cl)oc23)[C@H](O)C1"
data_value = "proceeded rapidly"

[[record]]
compound = "CCN(C[C@@H]1CCCCN1)C(=O)Oc1cc(O)c2c(=O)cc(-c3ccccc3Cl)oc2c1[C@H]1CCN(C)C[C@H]1O [Example 1, ditrifluoroacetate]"
data_value = "proceeded rapidly"

[[record]]
compound = "CCN(C[C@H]1CCCCN1)C(=O)Oc1cc(O)c2c(=O)cc(-c3ccccc3Cl)oc2c1[C@H]1CCN(C)C[C@H]1O"
data_value = "proceeded rapidly"


Proceeding to the next compound to report its Conversion to Alvocidib in BALB/c mouse plasma.
Inquiry: Name the recorded Conversion to Alvocidib in BALB/c mouse plasma for CN1CC[C@H](c2c(OC(=O)N(C)C[C@@H]3CCCCN3)cc(O)c3c(=O)cc(-c4ccccc4Cl)oc23)[C@H](O)C1 .
Reply text: proceeded rapidly

Where these numbers come from: patent US12617779B2
